# System: Jump-In™ T-REx™ CHO-K1 BLA cells
# experimental-protocol: Tetracycline beta-lactamase reporter gene assay (counterscreen)
# Assay type: cell-based
# conditions-used: read-out: Counterscreen EC50 (μM) (2% FBS) 16 H; 2% FBS, 16 H
Positions of bridges follow the written chain, without caps; N, C: chain ends. Non-standard residues stand in square brackets, D forms with d. Residues, ends and D or L forms follow the SMILES beside them. dPhe(4-CF3) = N[C@H](Cc1ccc(C(F)(F)F)cc1)C(=O)O; dTrp(6-F) = N[C@H](Cc1c[nH]c2cc(F)ccc12)C(=O)O; R5 = C=CCCC[C@@](C)(N)C(=O)O
quantity-name: EC50 (µM)
Reply numerically in µM, unit not repeated.

// lookup EC50 for CC(C)C[C@@H](NC(=O)[C@@H](CC(C)C)NC(=O)[C@@H](CCCCN)NC(=O)[C@@H](CCC(=O)O)NC(=O)[C@@H](Cc1ccc(C(F)(F)F)cc1)NC(=O)[C@@]1(C)CCC/C=C\CCC[C@@](C)(NC(=O)[C@H](N)[C@H](C)O)C(=O)N[C@H](Cc2c[nH]c3cc(F)ccc23)C(=O)N[C@H](Cc2ccc(O)cc2)C(=O)N[C@H](C)C(=O)N1)C(=O)N[C@H](CCCNC(=N)N)C(N)=O [^DPMI-δ (2-6)] (H-[dT][R5][dTrp(6-F)][dY][dA][R5][dPhe(4-CF3)][dE][dK][dL][dL][dR]-NH2; staple (Z) 2-6) 13.9
